# targetOrSystem: human TMEM16A (TMEM16Aabc variant) (Homo sapiens, UniProt Q5XXA6, DEL476-501)
# Sequence (Q5XXA6 with tags, fused parts or gaps isoform Q5XXA6-5 DEL539-564): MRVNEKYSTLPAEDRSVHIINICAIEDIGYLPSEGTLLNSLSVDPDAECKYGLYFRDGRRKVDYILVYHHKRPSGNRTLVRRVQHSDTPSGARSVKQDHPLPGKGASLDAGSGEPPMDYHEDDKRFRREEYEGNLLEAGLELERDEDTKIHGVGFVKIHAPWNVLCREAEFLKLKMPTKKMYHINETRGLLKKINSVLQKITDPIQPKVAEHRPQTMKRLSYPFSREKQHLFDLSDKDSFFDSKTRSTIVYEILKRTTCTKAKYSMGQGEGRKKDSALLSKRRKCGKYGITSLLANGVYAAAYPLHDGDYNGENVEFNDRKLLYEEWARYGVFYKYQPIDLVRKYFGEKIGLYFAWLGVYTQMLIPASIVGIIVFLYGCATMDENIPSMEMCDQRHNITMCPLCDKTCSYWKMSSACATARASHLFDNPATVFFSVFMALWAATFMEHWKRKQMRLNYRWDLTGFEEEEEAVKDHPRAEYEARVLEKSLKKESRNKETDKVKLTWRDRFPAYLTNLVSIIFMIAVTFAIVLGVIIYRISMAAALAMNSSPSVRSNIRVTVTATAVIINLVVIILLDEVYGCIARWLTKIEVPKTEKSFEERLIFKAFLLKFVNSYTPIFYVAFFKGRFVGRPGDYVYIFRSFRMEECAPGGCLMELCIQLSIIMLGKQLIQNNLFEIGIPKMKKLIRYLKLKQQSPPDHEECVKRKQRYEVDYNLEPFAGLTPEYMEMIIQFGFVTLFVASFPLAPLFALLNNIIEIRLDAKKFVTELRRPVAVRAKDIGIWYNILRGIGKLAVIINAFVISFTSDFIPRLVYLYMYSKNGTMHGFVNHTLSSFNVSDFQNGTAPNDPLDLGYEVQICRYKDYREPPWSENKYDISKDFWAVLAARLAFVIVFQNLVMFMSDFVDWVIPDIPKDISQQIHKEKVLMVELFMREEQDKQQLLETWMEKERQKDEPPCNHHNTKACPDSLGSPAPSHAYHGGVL
# runDescription: Automated whole-cell patch clamp (Qpatch) TMEM16A potentiator assay in recombinant FRT cells
# assayContext: minimum n = 2
pEC50: −log10 of the molar value.
reportedProperty: pEC50

Solved entries (count: 10):
CC(C)(C#N)NC(=O)c1cc(NC(=O)Cc2cc(O)c(C(C)(C)C)cc2Cl)ccn1 :: 7.28
O=C(Cc1cc(O)c(C2(O)CCOCC2)cc1F)Nc1ccnc(C(=O)NC2(C(F)(F)F)CC2)c1 :: 6.66
CC(CO)c1cc(F)c(CC(=O)Nc2ccnc(C(=O)NC3(C(F)(F)F)CC3)c2)cc1O (stereo not drawn) :: 7.00
O=C(Cc1cc(O)c(C(CO)C(F)(F)F)cc1F)Nc1ccnc(C(=O)NC2(C(F)(F)F)CC2)c1 (stereo not drawn) :: 7.03
C#CC(C)(C)NC(=O)c1cc(NC(=O)Cc2cc(O)c(C(C)(C)CO)cc2F)ccn1 :: 7.72
O=C(Cc1cc(O)c(C2(C(F)(F)F)CCO2)cc1F)Nc1ccnc(C(=O)NC2(C(F)(F)F)CC2)c1 (stereo not drawn) :: 7.52
[2H]c1c(O)c(C(C([2H])([2H])[2H])(C([2H])([2H])[2H])C([2H])([2H])[2H])cc(F)c1CC(=O)Nc1ccnc(C(=O)NC2(C#N)CC2)c1 :: 7.54
CC(C)(C#N)NC(=O)c1cc(NC(=O)Cc2cc(O)c(C(C)(C)C)cc2F)c(F)cn1 :: 6.88
CC(C)(O)c1cc(F)c(CC(=O)Nc2ccnc(C(=O)NC3(C(F)(F)F)CC3)c2)c(Cl)c1O :: 6.57
CC(C)(C#N)NC(=O)c1cc(NC(=O)Cc2cc(O)c(C3(C)CCC3)cc2F)ccn1 :: 7.37

a = CC(C)(CO)c1cc(Cl)c(CC(=O)Nc2ccnc(C(=O)NC3(C(F)F)CC3)c2)cc1O
b = CC1(NC(=O)c2cc(NC(=O)Cc3cc(O)c(C(C)(C)CO)cc3F)ccn2)CCOCC1
Query :: Hi there, can you help? I need to know whether a or b has lower measured pEC50. Answer with the label corresponding to your selection.
Result :: b
(b: 6.74, a: 7.44)

P = CC(C)(CCO)c1cc(F)c(CC(=O)Nc2ccnc(C(=O)NC3(C(F)(F)F)CC3)c2)cc1O
Q = CC(C)(CO)c1cc(F)c(CC(=O)Nc2ccnc(C(=O)NC3(C#N)CCOCC3)c2)cc1O
Query :: Which is greater in pEC50, the first item P or the second item Q ? Reply with the label of the item you choose.
Result :: P
